Target Of Assay: EGFRvIII expressed on cells (F98-npEGFRvIII, NCI-H522-EGFRvIII, U87-KO-EGFRvIII) (human)
Assay Details: flow cytometry, F98-EGFRvIII cells; 2nd Ab only 1.3
Outcome Measure: % positive (%)

Binder	Units Label	Obs Value
30D8 (antibody, V domains shown) VH: EVQLVESGGGLVKPGGSLRLSCEASGFTFSDAWMSWVRQAPGKGLEWVGRIKSKTDGGTTDYVVPLNGRFIISRDDSRNTLYLQLNNLKTEDTAVYYCTTVPGSYGYWGQGTLVTVSS VL: DIVMTQSPLSLPVTPGEPASISCRSSQSLLHNKRNNYLDWFLQKPGQSPQLLIYLASNRASGVPDRFSGGGSGTDFTLKISRVEAEDVGVYYCMQAQQTPITFGQGTRLEIK	%	98.6
20E12 (antibody, V domains shown) VH: EVNLVESGGGLVKPGGSLRLSCEASGFTFSYAWMSWVRQAPGKGLEWVGRIKSIADGGATDYAAPVRNRFTISRDDSRNTLYLEMHSLKTEDTAVYYCTTIPGNDAFDMWGQGTMVTVSS VL: DIVLTQSPLSLSVTPGEPASISCRSSQSLLYSNGKNYLDWFLHKPGQSPQLLIYLGSNRASGVPDRFSGSGSGIDFILKISRVEAEDVGVYYCMQAQQTPITFGQGTRLEIK	%	97.9
20G5 (antibody, V domains shown) VH: EVQLVESGGDLVKPGGSLRLSCAASGFTFTNAWMSWVRQAPGKGLEWVGRIKSKIDGGTTDYAAPVKGRFIISRDDSKNTLSLQMNSLKTEDTAMYYCTTAPGGPFDYWGQGSLVTVSS VL: DIVLTQSPLSLPVTPGEPASISCRSSQSLLYSDRRNYLDWFLQKPGQSPHLLIYLGSYRASGVPDRFSGSGSGTDFTLKISRVEAEDVGVYYCMQALQIPITFGQGTRLEIK	%	98.5
32G8 (antibody, V domains shown) VH: EVNLVESGGGLVKPGGSLRLSCEASGFTFSYAWMSWVRQAPGKGLEWVGRIKSITDGGVIDYAAPVRNRCTISRDDSRNTLYLEMHSLKTEDTAVYYCTTIPGNDDFDMWGQGRMVTVSS VL: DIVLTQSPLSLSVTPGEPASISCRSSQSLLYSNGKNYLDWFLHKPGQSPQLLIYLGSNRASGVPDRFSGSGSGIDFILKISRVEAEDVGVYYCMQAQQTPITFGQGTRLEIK	%	98.6
26B9 (antibody, V domains shown) VH: EVQLVESWGVLVKPGGSLRLSCAASGFIFNNAWMSWVRQAPGKGLEWIGRIKSKSDGGTTDYAAPVKDRFTISRDDSKDTLYLQMNGLKTEDTAVYFCTTAPGGPFDYWGQGTLVTVSS VL: DIVLTQSPLSLPVTPGEPASISCRSSQSLLHRDGFNYLDWFLQKPGQSPQLLIYLASSRASGVPDRFSGSDSGTDFTLKISRVEAEDVGVYYCMQALQTPITFGQGTRLEIK	%	98.6
34E7 (antibody, V domains shown) VH: EVNLVESGGGLVKPGGSLRLSCEASGFTFSYAWMSWVRQAPGKGLEWVGRIKSINDGGATDYASPVRNRFTISRDDSRNMLYLEMHSLKTEDTAVYYCTTIPGNDAFDMWGQGTLVTVSS VL: DIVLTQSPLSLSVTPGEPASISCRSTQSLLYSNGKNYLDWFLHKPGQSPQLLIFLGSIRASGVPDRFSGSGSGIDFILKISRVEAEDVGVYYCMQAQQTPITFGQGTRLEIK	%	98.5
